# Ki listing for each entry below
Target: human PDE2A1 (Homo sapiens (Human), UniProt O00408)
Sequence (O00408 other isoform, or with tags, fused parts or gaps): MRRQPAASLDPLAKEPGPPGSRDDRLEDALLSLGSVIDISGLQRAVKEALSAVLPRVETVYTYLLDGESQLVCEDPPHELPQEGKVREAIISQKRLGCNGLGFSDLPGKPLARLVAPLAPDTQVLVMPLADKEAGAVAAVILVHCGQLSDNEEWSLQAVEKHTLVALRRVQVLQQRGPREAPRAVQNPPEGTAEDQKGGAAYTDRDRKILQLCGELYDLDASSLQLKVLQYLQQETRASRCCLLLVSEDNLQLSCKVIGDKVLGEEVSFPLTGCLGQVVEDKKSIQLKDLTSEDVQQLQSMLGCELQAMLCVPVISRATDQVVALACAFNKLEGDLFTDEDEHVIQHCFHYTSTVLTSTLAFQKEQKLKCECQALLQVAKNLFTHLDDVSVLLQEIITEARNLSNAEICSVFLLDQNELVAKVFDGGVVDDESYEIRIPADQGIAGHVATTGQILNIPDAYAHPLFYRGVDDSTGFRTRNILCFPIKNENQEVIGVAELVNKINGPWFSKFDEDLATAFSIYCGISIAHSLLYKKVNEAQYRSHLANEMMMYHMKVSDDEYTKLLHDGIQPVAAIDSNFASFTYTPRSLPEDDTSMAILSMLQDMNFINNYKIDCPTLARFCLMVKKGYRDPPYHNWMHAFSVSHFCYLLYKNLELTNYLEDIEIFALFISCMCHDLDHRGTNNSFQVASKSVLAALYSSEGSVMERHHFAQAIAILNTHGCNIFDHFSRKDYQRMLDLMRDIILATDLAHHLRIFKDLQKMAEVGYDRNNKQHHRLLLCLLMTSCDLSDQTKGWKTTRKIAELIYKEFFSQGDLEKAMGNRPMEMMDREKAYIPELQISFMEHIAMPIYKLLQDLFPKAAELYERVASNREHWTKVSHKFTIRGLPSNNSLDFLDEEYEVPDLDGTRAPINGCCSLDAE
Experiment: PDE2 IMAP FP inhibition assay, human PDE2A1 (selectivity panel format)
Type: biochemical
Conditions: Lab B; read-out: Human PDE2 Ki (nM) - Lab B
Protocol: Selectivity for PDE2, as compared to other PDE families, was assessed using the IMAP® technology. Human PDE10A2 enzyme was prepared from cytosolic fractions of transiently transfected HEK cells. A Labcyte POD 810 (Labcyte, Sunnyvale, Calif.) was used to dispense 200 nL from each well of the titration plate to make eleven copies of the assay plate for each titration, one copy for each PDE enzyme. […]
Your answer is read as nM, so omit the unit and give the number.

Some solved entries appear below for comparison.
- COC(=O)C(NC(=O)c1cc(=O)[nH]c(N(C)C)n1)c1ccc(C(F)(F)F)cc1 (centres unmarked): 49
- CC[C@@H](NC(=O)c1cc(=O)[nH]c(N(C)C)n1)c1ccc(OC(F)(F)F)c(F)c1: 1.1
- CN(C)c1nc(C(=O)NC2(c3ccc(C(C)(C)C)cc3)CC2)cc(=O)[nH]1: 3.6

Q: Recorded Ki for CN(C)c1nc(C(=O)N[C@@H](c2ccc(C(F)(F)F)c(F)c2)C2CC2)cc(=O)[nH]1 with human PDE2A1 (Homo sapiens (Human), UniProt O00408), please?
Ans: 1.9

Q: Likewise for C[C@@H](NC(=O)c1cc(=O)[nH]c(N(C)C)n1)c1ccc(C(F)(F)F)cc1 ?
Ans: 2.3

Q: Now the compound CC(C)[C@@H](NC(=O)c1cc(=O)[nH]c(O)n1)c1ccc(SC(F)(F)F)cc1
Ans: 329

Q: Subsequent entry: CN(C)c1nc(C(=O)N[C@@H](c2ccc(C(F)F)cc2F)C(C)(C)C)cc(=O)[nH]1
Ans: 0.17

Q: Also need CC(C)[C@@H](NC(=O)c1cc(=O)[nH]c(N(C)C)n1)c1ccc(OC(F)F)cc1 , thanks.
Ans: 2

====

target: human PDE2A1 (Homo sapiens (Human)); test: PDE2 IMAP FP inhibition assay, human PDE2A1 (selectivity panel format); format: biochemical; settings: Lab B; read-out: Human PDE2 Ki (nM) - Lab B
quantity_name: Ki

• CN(C)c1nc(C(=O)NC2(c3ccc(C(F)F)c(F)c3)CC2)cc(=O)[nH]1 = 9.7 nM
• CC(C)C(C)(NC(=O)c1cc(=O)[nH]c(N(C)C)n1)c1ccc(S(F)(F)(F)(F)F)cc1 (single isomer, unassigned) [Example 173] = 6.5 nM
• CN(C)c1nc(C(=O)NC(C)(C)c2ccc(C(F)F)c(F)c2)cc(=O)[nH]1 = 10 nM
• CN(C)c1nc(C(=O)N[C@@H](c2ccc(C(F)F)cc2)C2CC2)cc(=O)[nH]1 = 7.4 nM
• CN(C)c1nc(C(=O)NC(C)(C)c2ccc(C(F)(F)F)cc2F)cc(=O)[nH]1 = 2.5 nM
• C[C@@H](NC(=O)c1cc(=O)[nH]c(N(C)C)n1)c1ccc(C(C)(F)F)cc1 = 3.9 nM

Q: # get_value(readout='Ki', item= CN(C)c1nc(C(=O)N[C@@H](c2ccc(C(F)(F)F)cc2)C2(C)CC2)cc(=O)[nH]1 )
Ans: 0.32 nM

Q: Then CN(C)c1nc(C(=O)N[C@@H](c2ccc(C(F)F)cc2)C2(C)CC2)cc(=O)[nH]1 ?
Ans: 0.75 nM

Q: Follow-up entry: CC(C)[C@@H](NC(=O)c1cc(=O)[nH]c(N(C)C)n1)c1ccc(OC(F)(F)F)c(F)c1
Ans: 0.42 nM

Q: Same for CN(C)c1nc(C(=O)NC2(c3ccc(C(F)(F)F)cc3)COC2)cc(=O)[nH]1
Ans: 9.2 nM

Q: // same read-out, input: CC(C)[C@@H](NC(=O)c1cc(=O)[nH]c(N2CC[C@H](F)C2)n1)c1ccc(SC(F)(F)F)c(F)c1
Ans: 0.45 nM

Q: One more molecule: O=C(N[C@@H](c1ccc(C2CC2)cc1)C1CC1)c1cc(=O)[nH]c(N2CCCC2)n1
Ans: 0.63 nM

Q: Next record, please: CN(C)c1nc(C(=O)N[C@H]2COCc3cc(C(F)(F)F)ccc32)cc(=O)[nH]1
Ans: 863 nM

Q: Could you do the same for C[C@@H](NC(=O)c1cc(=O)[nH]c(N(C)C)n1)c1ccc(SC(F)(F)F)cc1 , please?
Ans: 0.82 nM

Q: Ok, now CN(C)c1nc(C(=O)N[C@@H](c2ccc(OC(F)(F)F)cc2)C(C)(C)C)cc(=O)[nH]1
Ans: 0.21 nM

Q: Would you kindly repeat that for CN(C)c1nc(C(=O)N[C@@H](c2ccc(C3CC3)c(F)c2)C(C)(C)C)cc(=O)[nH]1 ?
Ans: 0.03 nM

====

molecular target: UniProt Q6PSM0; experiment: P-gp transport, experimental BA/AB ratio, rat LLC-Mdr1a; type: in vitro ADME; conditions: LLC-PK1; rat LLC-Mdrla; 1 μM substrate concentration
Sequence (Q6PSM0 1-1272): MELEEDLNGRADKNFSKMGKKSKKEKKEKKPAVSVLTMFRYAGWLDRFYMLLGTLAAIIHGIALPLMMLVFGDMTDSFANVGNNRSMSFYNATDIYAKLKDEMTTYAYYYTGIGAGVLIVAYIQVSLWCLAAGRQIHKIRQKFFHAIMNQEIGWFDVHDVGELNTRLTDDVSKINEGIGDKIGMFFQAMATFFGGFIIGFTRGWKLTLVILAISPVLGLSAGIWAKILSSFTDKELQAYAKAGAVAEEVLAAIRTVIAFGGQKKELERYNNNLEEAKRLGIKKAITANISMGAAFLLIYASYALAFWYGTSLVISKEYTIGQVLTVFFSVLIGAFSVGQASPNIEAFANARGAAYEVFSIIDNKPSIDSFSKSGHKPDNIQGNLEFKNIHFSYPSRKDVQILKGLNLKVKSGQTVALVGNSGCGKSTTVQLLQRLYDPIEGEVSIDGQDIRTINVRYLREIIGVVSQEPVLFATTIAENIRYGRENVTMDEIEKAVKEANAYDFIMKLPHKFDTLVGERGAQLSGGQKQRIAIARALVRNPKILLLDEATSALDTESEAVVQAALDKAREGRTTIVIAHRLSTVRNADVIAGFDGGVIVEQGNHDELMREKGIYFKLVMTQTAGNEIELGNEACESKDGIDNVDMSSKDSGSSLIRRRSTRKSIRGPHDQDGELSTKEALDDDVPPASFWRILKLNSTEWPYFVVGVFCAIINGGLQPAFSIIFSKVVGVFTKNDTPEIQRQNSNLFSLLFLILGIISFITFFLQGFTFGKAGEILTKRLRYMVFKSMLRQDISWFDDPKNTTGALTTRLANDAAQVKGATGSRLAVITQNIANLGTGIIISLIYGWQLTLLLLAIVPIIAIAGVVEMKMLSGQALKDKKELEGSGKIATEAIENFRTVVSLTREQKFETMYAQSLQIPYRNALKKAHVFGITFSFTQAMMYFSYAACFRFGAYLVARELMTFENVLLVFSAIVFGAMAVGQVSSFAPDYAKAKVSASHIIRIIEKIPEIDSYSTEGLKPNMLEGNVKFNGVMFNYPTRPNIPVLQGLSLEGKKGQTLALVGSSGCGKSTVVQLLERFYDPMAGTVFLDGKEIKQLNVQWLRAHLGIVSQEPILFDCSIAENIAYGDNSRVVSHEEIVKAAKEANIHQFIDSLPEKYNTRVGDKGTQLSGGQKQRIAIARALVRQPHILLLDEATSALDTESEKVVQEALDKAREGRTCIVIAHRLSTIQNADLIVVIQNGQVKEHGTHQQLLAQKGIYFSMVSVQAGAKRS
quantity_name: efflux ratio at 1 μM
Form rule: numeric answer, no unit written next to it.

Worked examples follow.
- CO[C@H]1CCN(c2nc(C(=O)N[C@@H](c3ccc(C(F)(F)F)cc3)C(C)(C)C)cc(=O)[nH]2)C1 [Example 170]: 10.7
- CC[C@@H](NC(=O)c1cc(=O)[nH]c(N(C)C)n1)c1ccc(OC(F)(F)F)cc1 [Example 105]: 3.7
- CNc1nc(C(=O)N[C@@H](c2ccc(OC(F)(F)F)c(F)c2)C(C)C)cc(=O)[nH]1 [Example 151]: 18.7
- CC(C)[C@@H](NC(=O)c1cc(=O)[nH]c(N2CC[C@H](F)C2)n1)c1ccc(OC(F)(F)F)c(F)c1 [Example 162]: 17.9
- CN(C)c1nc(C(=O)N[C@@H](c2ccc(C(F)F)cc2)C2CC2)cc(=O)[nH]1 [Example 64]: 5.6

Q: Which measured efflux ratio at 1 μM value corresponds to CNc1nc(C(=O)N[C@@H](c2ccc(SC(F)(F)F)c(F)c2)C(C)C)cc(=O)[nH]1 [Example 155] ?
Ans: 9

Q: And the next one, CN(C)c1nc(C(=O)N[C@@H](c2ccc(OC(F)F)cc2)C(C)(C)C)cc(=O)[nH]1 [Example 34] ?
Ans: 12.7

====

target: UniProt:B3VTJ2; assay: PDE2 fluorescence polarization (IMAP FP) inhibition assay, rhesus PDE2A3; format: biochemical, rhesus macaque; details: Lab A; read-out: Rhesus PDE2 Ki (nM) - Lab A
Consider the following compounds and their measured Ki readings.

* COCCCOc1nc(C(=O)NC(C)c2ccc(C(F)(F)F)cc2)cc(=O)[nH]1 (centres unmarked) [Example 179] | 108 nM
* CC(NC(=O)c1cc(=O)[nH]c(OC2CCCNC2)n1)c1ccc(C(F)(F)F)cc1 (centres unmarked) [Example 191] | > 100000 nM
* O=C(N[C@@H](c1ccc(OC(F)(F)F)cc1)C1CC1)c1cc(=O)[nH]c(N2CCCC2)n1 [Example 114] | 0.94 nM

Q: Which measured Ki belongs to CC(NC(=O)c1cc(=O)[nH]c(OC2CCNC2)n1)c1ccc(C(F)(F)F)cc1 (centres unmarked) [Example 185] , tested on UniProt:B3VTJ2?
Ans: > 100000 nM

Q: And for CC(C)[C@@H](NC(=O)c1cc(=O)[nH]c(N(C)C)n1)c1ccc(C(F)(F)F)c(F)c1 [Example 112] ?
Ans: 0.27 nM

Q: Subsequent entry: CC(C)[C@@H](NC(=O)c1cc(=O)[nH]c(N2CC[C@H](F)C2)n1)c1ccc(OC(F)(F)F)c(F)c1 [Example 162]
Ans: 0.51 nM

Q: Next entry: CC[C@@H](NC(=O)c1cc(=O)[nH]c(N(C)C)n1)c1ccc(S(F)(F)(F)(F)F)cc1 [Example 5]
Ans: 0.69 nM

Q: Now consider C[C@@H](NC(=O)c1cc(=O)[nH]c(N(C)C)n1)c1ccc(OC(F)(F)F)cc1 [Example 87] and answer again.
Ans: 1.1 nM

====

biological target: Rhesus PDE2A3 (Macaca mulatta); assay: PDE2 fluorescence polarization (IMAP FP) inhibition assay, rhesus PDE2A3; format: biochemical, rhesus macaque; details: Lab B; read-out: Rhesus PDE2 Ki (nM) - Lab B
Sequence (B3VTJ2 1-941): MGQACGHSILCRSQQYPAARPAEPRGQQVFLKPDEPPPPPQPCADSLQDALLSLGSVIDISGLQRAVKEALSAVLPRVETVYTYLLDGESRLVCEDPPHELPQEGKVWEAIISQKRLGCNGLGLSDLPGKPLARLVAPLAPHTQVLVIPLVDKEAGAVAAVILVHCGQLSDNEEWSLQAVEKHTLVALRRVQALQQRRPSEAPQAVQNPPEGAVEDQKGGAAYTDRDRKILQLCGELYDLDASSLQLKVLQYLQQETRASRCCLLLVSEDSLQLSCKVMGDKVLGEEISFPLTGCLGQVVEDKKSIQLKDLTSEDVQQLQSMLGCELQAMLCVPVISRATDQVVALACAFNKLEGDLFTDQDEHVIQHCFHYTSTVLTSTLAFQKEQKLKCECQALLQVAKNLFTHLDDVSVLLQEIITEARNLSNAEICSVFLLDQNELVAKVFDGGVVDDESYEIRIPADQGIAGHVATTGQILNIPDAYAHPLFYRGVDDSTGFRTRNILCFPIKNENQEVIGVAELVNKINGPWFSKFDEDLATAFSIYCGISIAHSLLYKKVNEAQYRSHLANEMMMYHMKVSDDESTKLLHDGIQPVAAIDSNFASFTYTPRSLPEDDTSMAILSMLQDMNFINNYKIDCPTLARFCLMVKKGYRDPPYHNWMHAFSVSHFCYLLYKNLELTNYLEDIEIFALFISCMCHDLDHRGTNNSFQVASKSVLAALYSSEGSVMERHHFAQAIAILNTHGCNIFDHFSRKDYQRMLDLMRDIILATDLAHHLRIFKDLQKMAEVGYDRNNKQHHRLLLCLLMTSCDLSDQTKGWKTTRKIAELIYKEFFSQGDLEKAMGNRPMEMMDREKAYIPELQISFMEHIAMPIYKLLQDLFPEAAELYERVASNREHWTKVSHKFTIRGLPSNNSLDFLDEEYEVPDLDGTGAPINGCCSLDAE
# key: entry, value: log10 Ki
Log scale reminder: Ki in nM, then log10 taken.

Check out these entries, answers already filled in.
• CC(C)[C@@H](NC(=O)c1cc(=O)[nH]c(N(C)C)n1)c1ccc(OC(F)F)cc1 [Example 33] = 0.43
• O=C(N[C@@H](c1ccc(OC(F)(F)F)cc1)C1CC1)c1cc(=O)[nH]c(N2CCCC2)n1 [Example 114] = 0.18
• CN(C)c1nc(C(=O)N[C@@H](c2ccc(C(F)(F)F)cc2F)C(C)(C)C)cc(=O)[nH]1 [Example 37] = -0.96

Next:
Q: If you can, please state the reported log10 Ki value of O=C(N[C@@H](c1ccc(C2CC2)cc1)C1CC1)c1cc(=O)[nH]c(N2CCCC2)n1 [Example 113] .
Ans: -0.19
